- Test system: HL-1 cardiomyocytes, H2O2 protection, ATPLite, 2 h
- Assay Comment: HL-1 cardiomyocyte survival under H2O2 injury – cell-based, hydrogen peroxide, ATP luminescence, SAR follow-up (AID 623872)
Calls of active or inactive are those of the source.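 The calls were made as follows: active = IC50 at or below 20 µM in the dose response; inactive = the rest.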
Thanks in advance; please answer with one of these: active, inactive

Below, 8 compounds whose answers are already recorded.
COc1ccc(NC(=O)CN(C)C(=O)c2cc(-c3cccs3)nn2-c2ccccc2)cc1	inactive
COCCNC(=O)C(c1ccc(O)cc1)N(C(=O)c1snc(C(N)=O)c1N)c1ccccc1F (stereo not given)	inactive
COc1ccc(N2C(=O)c3ccccc3N3C(=O)c4c(ccc(OC)c4OC)C23)cc1 (stereo not given)	inactive
COc1ccc2c(c1OC)C(=O)N1c3ccccc3C(=O)N(c3cccc(Br)c3)C21 (stereo not given)	active
COc1ccc2c(=O)c(C(=O)N3CCN(S(=O)(=O)c4c(C)cc(C)cc4C)CC3)c[nH]c2c1	inactive
CCCn1c(SC(C(=O)Nc2cccc(OC)c2)c2ccccc2)nc2ccccc2c1=O (stereo not given)	inactive
COc1ccccc1N1C(=O)c2ccccc2N2C(=O)c3c(ccc(OC)c3OC)C12 (stereo not given)	inactive
O=C1c2ccccc2N2C(=O)c3ccccc3[C@H]2N1c1ccccc1	inactive

Query block: Which outcome did this test record for the compound O=C(C(=O)N1CCCC1)c1c(-c2ccccc2)[nH]c2ccccc12 ?
Result block: inactive

Query block: Which outcome did this test record for the compound COc1ccc2cc(C(=O)N3CCN(S(=O)(=O)c4cc(C)ccc4C)CC3)c(C)nc2c1 ?
Result block: inactive
